Tested on: 945468-187-T-J3-PDC spheroids with HUVEC/MSC, viability
Test: Anticancer human tumor 945468-187-T-J3-PDC patient-derived rectal carcinoma cell line growth inhibition [PI3K]
Condition info: curve of first compound; second compound 0.316 µM
pIC50: −log10 of the molar value.
Quantity kind: pIC50

Record summary for CC(C)n1nc(-c2ccc3oc(N)nc3c2)c2c(N)ncnc21 + CC(Nc1ccc2c(c1)OCCn1cc(N3C(=O)OCC3C(F)F)nc1-2)C(N)=O : reported pIC50 = 7.56

Record summary for CC1(C)CCC(CN2CCN(c3ccc(C(=O)NS(=O)(=O)c4ccc(NCC5CCOCC5)c([N+](=O)[O-])c4)c(Oc4cnc5[nH]ccc5c4)c3)CC2)=C(c2ccc(Cl)cc2)C1 + CC(Nc1ncnc2nc[nH]c12)c1cc2cccc(Cl)c2c(=O)n1-c1ccccc1 : reported pIC50 = < 5.00

Record summary for Cn1ncnc1[C@H]1c2n[nH]c(=O)c3cc(F)cc(c23)N[C@@H]1c1ccc(F)cc1 + CC(Nc1ncnc2nc[nH]c12)c1cc2cccc(Cl)c2c(=O)n1-c1ccccc1 : reported pIC50 = < 7.00

Record summary for Cn1cnc2c(F)c(Nc3ccc(Br)cc3Cl)c(C(=O)NOCCO)cc21 + Cc1nc(NC(=O)N2CCCC2C(N)=O)sc1-c1ccnc(C(C)(C)C(F)(F)F)c1 : reported pIC50 = < 5.52

Record summary for Cn1ncc(Cl)c1-c1cc(C(=O)NC(CN)Cc2cccc(F)c2)sc1Cl (stereo unspecified) + COc1c(OCCCN2CCOCC2)ccc2c3n(c(=NC(=O)c4cnc(N)nc4)nc12)CCN3 : reported pIC50 = > 7.50

Record summary for CC(=O)c1c(C)c2cnc(Nc3ccc(N4CCNCC4)cn3)nc2n(C2CCCC2)c1=O + COc1c(OCCCN2CCOCC2)ccc2c3n(c(=NC(=O)c4cnc(N)nc4)nc12)CCN3 : reported pIC50 = > 9.50

###

Test system: 945468-187-T-J3-PDC spheroids with HUVEC/MSC, viability
Test: Anticancer human tumor 945468-187-T-J3-PDC cell line growth inhibition [PI3K];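 further: spheroids exposed to agents for 7 days before viability read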
Condition info: curve of first compound; second compound 0.316 µM
Excerpt: Combinatorial screen of targeted agents with the PI3K inhibitors inavolisib, alpelisib, duvelisib, and copanlisib in multi-cell type tumor spheroids A high-throughput screen of multi-cell type tumor spheroids was designed to identify active combinations of targeted small molecules and PI3K pathway inhibitors. […] Compounds. […] If the clinical Cmax for an agent had not been determined, the highest concentration tested was 10 microM. […]
pIC50: −log10 of the molar value.
Quantity kind: pIC50

Tested on 945468-187-T-J3-PDC spheroids with HUVEC/MSC, viability: CC(Cn1ccc(-c2ccc(C#N)c(Cl)c2)n1)NC(=O)c1cc(C(C)O)[nH]n1 (stereo unspecified) + CC(Nc1ncnc2nc[nH]c12)c1cc2cccc(Cl)c2c(=O)n1-c1ccccc1 . Observed pIC50: < 5.00

Tested on 945468-187-T-J3-PDC spheroids with HUVEC/MSC, viability: CC(C)NCC(C(=O)N1CCN(c2ncnc3c2C(C)CC3O)CC1)c1ccc(Cl)cc1 (stereo unspecified) + Cc1nc(NC(=O)N2CCCC2C(N)=O)sc1-c1ccnc(C(C)(C)C(F)(F)F)c1 . Observed pIC50: 5.27

Tested on 945468-187-T-J3-PDC spheroids with HUVEC/MSC, viability: CC1(C)CCC(CN2CCN(c3ccc(C(=O)NS(=O)(=O)c4ccc(NCC5CCOCC5)c([N+](=O)[O-])c4)c(Oc4cnc5[nH]ccc5c4)c3)CC2)=C(c2ccc(Cl)cc2)C1 + CC(Nc1ccc2c(c1)OCCn1cc(N3C(=O)OCC3C(F)F)nc1-2)C(N)=O . Observed pIC50: < 5.00

Tested on 945468-187-T-J3-PDC spheroids with HUVEC/MSC, viability: C#Cc1c(F)ccc2cc(O)cc(-c3ncc4c(N5CC6CCC(C5)N6)nc(OCC56CCCN5CC(F)C6)nc4c3F)c12 (stereo unspecified) + CC(Nc1ccc2c(c1)OCCn1cc(N3C(=O)OCC3C(F)F)nc1-2)C(N)=O . Observed pIC50: < 5.00

Tested on 945468-187-T-J3-PDC spheroids with HUVEC/MSC, viability: C[C@@H](NC(=O)c1ncnc(N)c1Cl)c1ncc(C(=O)Nc2cc(C(F)(F)F)c(Cl)cn2)s1 + CC(Nc1ncnc2nc[nH]c12)c1cc2cccc(Cl)c2c(=O)n1-c1ccccc1 . Observed pIC50: < 5.00

Tested on 945468-187-T-J3-PDC spheroids with HUVEC/MSC, viability: Cn1ncc(Cl)c1-c1cc(C(=O)NC(CN)Cc2cccc(F)c2)sc1Cl (stereo unspecified) + CC(Nc1ccc2c(c1)OCCn1cc(N3C(=O)OCC3C(F)F)nc1-2)C(N)=O . Observed pIC50: 5.95

Tested on 945468-187-T-J3-PDC spheroids with HUVEC/MSC, viability: CC(Cn1ccc(-c2ccc(C#N)c(Cl)c2)n1)NC(=O)c1cc(C(C)O)[nH]n1 (stereo unspecified) + Cc1nc(NC(=O)N2CCCC2C(N)=O)sc1-c1ccnc(C(C)(C)C(F)(F)F)c1 . Observed pIC50: < 5.00

Tested on 945468-187-T-J3-PDC spheroids with HUVEC/MSC, viability: Cn1cnc2c(F)c(Nc3ccc(Br)cc3Cl)c(C(=O)NOCCO)cc21 + COc1c(OCCCN2CCOCC2)ccc2c3n(c(=NC(=O)c4cnc(N)nc4)nc12)CCN3 . Observed pIC50: > 8.02

Tested on 945468-187-T-J3-PDC spheroids with HUVEC/MSC, viability: C#Cc1c(F)ccc2cc(O)cc(-c3ncc4c(N5CC6CCC(C5)N6)nc(OCC56CCCN5CC(F)C6)nc4c3F)c12 (stereo unspecified) + Cc1nc(NC(=O)N2CCCC2C(N)=O)sc1-c1ccnc(C(C)(C)C(F)(F)F)c1 . Observed pIC50: < 5.00

Tested on 945468-187-T-J3-PDC spheroids with HUVEC/MSC, viability: C=CC(=O)N1CCN(c2nc(=O)n(-c3c(C)ccnc3C(C)C)c3nc(-c4c(O)cccc4F)c(F)cc23)C(C)C1 (stereo unspecified) + Cc1nc(NC(=O)N2CCCC2C(N)=O)sc1-c1ccnc(C(C)(C)C(F)(F)F)c1 . Observed pIC50: < 5.00

Tested on 945468-187-T-J3-PDC spheroids with HUVEC/MSC, viability: C[C@@H](NC(=O)c1ncnc(N)c1Cl)c1ncc(C(=O)Nc2cc(C(F)(F)F)c(Cl)cn2)s1 + COc1c(OCCCN2CCOCC2)ccc2c3n(c(=NC(=O)c4cnc(N)nc4)nc12)CCN3 . Observed pIC50: > 7.50

Tested on 945468-187-T-J3-PDC spheroids with HUVEC/MSC, viability: CNC(=O)c1ccc(N2C(=S)N(c3ccc(C#N)c(C(F)(F)F)c3)C(=O)C2(C)C)cc1F + COc1c(OCCCN2CCOCC2)ccc2c3n(c(=NC(=O)c4cnc(N)nc4)nc12)CCN3 . Observed pIC50: > 7.50

Tested on 945468-187-T-J3-PDC spheroids with HUVEC/MSC, viability: Cn1nccc1Nc1nccc(-c2ccn(C(CO)c3ccc(Cl)c(F)c3)c(=O)c2)n1 (stereo unspecified) + CC(Nc1ccc2c(c1)OCCn1cc(N3C(=O)OCC3C(F)F)nc1-2)C(N)=O . Observed pIC50: < 5.00

Tested on 945468-187-T-J3-PDC spheroids with HUVEC/MSC, viability: CCN1CCN(Cc2ccc(Nc3ncc(F)c(-c4cc(F)c5nc(C)n(C(C)C)c5c4)n3)nc2)CC1 + CC(Nc1ccc2c(c1)OCCn1cc(N3C(=O)OCC3C(F)F)nc1-2)C(N)=O . Observed pIC50: 6.72

Tested on 945468-187-T-J3-PDC spheroids with HUVEC/MSC, viability: CNC(=O)c1ccc(N2C(=S)N(c3ccc(C#N)c(C(F)(F)F)c3)C(=O)C2(C)C)cc1F + CC(Nc1ccc2c(c1)OCCn1cc(N3C(=O)OCC3C(F)F)nc1-2)C(N)=O . Observed pIC50: < 5.00

Tested on 945468-187-T-J3-PDC spheroids with HUVEC/MSC, viability: C[C@@H](NC(=O)c1ncnc(N)c1Cl)c1ncc(C(=O)Nc2cc(C(F)(F)F)c(Cl)cn2)s1 + CC(Nc1ccc2c(c1)OCCn1cc(N3C(=O)OCC3C(F)F)nc1-2)C(N)=O . Observed pIC50: < 5.00

Tested on 945468-187-T-J3-PDC spheroids with HUVEC/MSC, viability: CNC(=O)c1ccc(N2C(=S)N(c3ccc(C#N)c(C(F)(F)F)c3)C(=O)C2(C)C)cc1F + CC(Nc1ncnc2nc[nH]c12)c1cc2cccc(Cl)c2c(=O)n1-c1ccccc1 . Observed pIC50: < 5.00

Tested on 945468-187-T-J3-PDC spheroids with HUVEC/MSC, viability: CCN1CCN(Cc2ccc(Nc3ncc(F)c(-c4cc(F)c5nc(C)n(C(C)C)c5c4)n3)nc2)CC1 + Cc1nc(NC(=O)N2CCCC2C(N)=O)sc1-c1ccnc(C(C)(C)C(F)(F)F)c1 . Observed pIC50: < 6.00

Tested on 945468-187-T-J3-PDC spheroids with HUVEC/MSC, viability: CCCS(=O)(=O)Nc1ccc(F)c(C(=O)c2c[nH]c3ncc(-c4ccc(Cl)cc4)cc23)c1F + CC(Nc1ncnc2nc[nH]c12)c1cc2cccc(Cl)c2c(=O)n1-c1ccccc1 . Observed pIC50: < 5.00

Tested on 945468-187-T-J3-PDC spheroids with HUVEC/MSC, viability: CC(=O)c1c(C)c2cnc(Nc3ccc(N4CCNCC4)cn3)nc2n(C2CCCC2)c1=O + CC(Nc1ccc2c(c1)OCCn1cc(N3C(=O)OCC3C(F)F)nc1-2)C(N)=O . Observed pIC50: < 7.00

Tested on 945468-187-T-J3-PDC spheroids with HUVEC/MSC, viability: CC1(C)CCC(Nc2ncc(C(F)(F)F)c(-c3c[nH]c4c(P(C)(C)=O)c(C#N)ccc34)n2)CN1 (stereo unspecified) + CC(Nc1ccc2c(c1)OCCn1cc(N3C(=O)OCC3C(F)F)nc1-2)C(N)=O . Observed pIC50: 5.42
